experiment.description: yeast display, Sf9 membrane polyspecificity reagent, FACS + sequencing; frameworks hold sequencing errors
measurement.label: polyreactivity (PSR sort gate)

Please review the following examples before continuing.
| sequence.chain | polyreactivity (PSR sort gate) |
| --- | --- |
| QVQLVESGGGLVQAGGSLRLSCAASGYTFIVNAIGWYRQAPGKERQLVAAISRSGSSTRSADSVKWRFTISRDNAKNTVYLLMNRLKPEDTSVYYCAADLYSSEGRYYFWGQGTQVTVSS | high polyreactivity |
| QVQLVESGGGLVQAGGSLRLSCAASGFTFVRYVMGWYRQAPGKERELVAAISRSGGSTHYADSVKGRFTISRDNAKNTVYLQMNSLKPEDTAVYYCAAASPRWPGQGDYWGQGTQVTVSS | high polyreactivity |
| QVQLVESGGGLVQAGGSLRLICAASGRTFRYYAMGWYRQAPGKERELVAAISASGGSTFYADSVKGRFTISRDNAKNTVYLQMNSLKPEDTAVYYCAAYHYSVFPYKQYDYWGQGTQVTVSS | high polyreactivity |
| QVQLVESGGGLVQAGGSLRLSCSASGSTFGYNAMGWYRQAPGKERELVAAILFSGGSTFYADSVKGRFTISRDNAKNTVYLQMNSLKQEDTAVYYCADYAGYYAYDSWGQGTQVTVSS | low polyreactivity |
| QVQLVESGGGLVQAGGSLRLSCAASGRIFPVNAMGWYRQAPGTERELVATISSGDITNYAHSVKGRFTISRDNAKNTVYLQMNSLKPEDTAVYYCAADYTWRAWTYYGIKYNYWGQGTQVTVSS | low polyreactivity |
| QVQLVESGGGLVQAGGSLRLSCAASGSTFGGYALGWDRQAPGKDRELVAAISRSGGRTYYADSVKGRFTISRDNAQNTVYLQMNSLKPEATAVYDCYPYYIASTFDYWGHGTQVTVSS | high polyreactivity |

Below are some sequences; for each one, tell me its polyreactivity (PSR sort gate).
1. QVQLVESGGGLVQAGGSLRLSCAGSGRTLVLYDRGWSRQAHGKARELVAAITWSGDSTYYADSVKGRFTISRDNAKNTVYLQMNSLKPEDTQVYYCSATYLNAKRGLRDDYWGQGTQVTVSS
2. QVQLEESGGGLVQAGGSLRLSCAAAGLTFDVYAMGWYRPAPGNEMELVAAISSIGGSTYYADSVKGRFTISRDNAKNNVYLQMYSLKPEDTAVYYCSAAISLYSYDYWGQGTQVTVSS
3. QVQLVESGGGLVQAGGSLRLSCAATGSIFKWYAMGWYRQEPGKERELVSAISKSGGSTYYADSVKGRFTISRDNAKNTVYLQINSLKPEDTAVYYCNAVYIGSRRRYEYDYWGEGTQVTVSS
4. QVQLVESGGGLVQAGGSLRLSCAASGITIRRYGMGWYRQAPGKERELVATITRDGRTYYADSVKGRFTISRDNAKNTVYLQMNSLKPEDTAVYYCARPARYSYGDGYWGQGTQVTVSS

Result:
low polyreactivity
low polyreactivity
high polyreactivity
low polyreactivity
